// provenance: the antibiotic and cytotoxicity screens of Wong et al. (2023)

# Tested on: HSkMC
# method description: cytotoxicity call (relative viability < 0.9)
# experimental conditions: 10 µM
In all, about 39,000 compounds went through this assay and about 1,500 (3.8%) were called active. Shown is part of a subset that was picked to be rich in actives.
Choose the fitting class; nothing outside t (active), f (inactive) is accepted.

The following molecules have reported results that may help.
>>> df
                                smiles_text  answer_label
0  C[C@@H]1CN([C@@H](C)CO)C(=O)Cc2cc(NC(=O)Nc3ccccc3)ccc2O[C@H]1CN(C)Cc1ccc(C(F)(F)F)cc1             t
1  C[C@H]1CN([C@@H](C)CO)C(=O)Cc2cc(NC(=O)Nc3ccccc3)ccc2O[C@H]1CN(C)Cc1ccc(C(F)(F)F)cc1             t
2  C[C@H]1CN([C@@H](C)CO)C(=O)c2cc(NC(=O)Nc3ccc(F)cc3)ccc2O[C@@H]1CN(C)CC1CCCCC1             f

[in] For C[C@@H]1CN([C@@H](C)CO)C(=O)Cc2cc(NC(=O)Nc3ccccc3)ccc2O[C@@H]1CN(C)Cc1ccc(C(F)(F)F)cc1 , which call appears in the assay record?
[out] t

[in] For C[C@@H]1CN([C@H](C)CO)C(=O)Cc2cc(NC(=O)Nc3ccccc3)ccc2O[C@@H]1CN(C)Cc1ccc(C(F)(F)F)cc1 , which call appears in the assay record?
[out] t

[in] For C[C@H]1CN([C@@H](C)CO)C(=O)c2cccc(NS(=O)(=O)c3cccs3)c2O[C@H]1CN(C)S(=O)(=O)c1ccc(F)cc1 , which call appears in the assay record?
[out] f

[in] For C[C@H](CO)N1C[C@H](C)[C@@H](CN(C)CC2CCCCC2)Oc2ccc(NC(=O)Nc3ccc(C(F)(F)F)cc3)cc2C1=O , which call appears in the assay record?
[out] f

###

# System: HSkMC
# method description: cytotoxicity call (relative viability < 0.9)
# experimental conditions: 10 µM
The campaign covered roughly 39,000 compounds. About 1,500 (3.8%) were called active. The entries come from a sample that favours actives as a whole.
Choose the fitting class; nothing outside active, inactive is accepted.

The following compounds have reported results that may help.
smiles text	answer label
CC(C)(Sc1cc(C(C)(C)C)c(O)c(C(C)(C)C)c1)Sc1cc(C(C)(C)C)c(OCC(=O)O)c(C(C)(C)C)c1	active
CC(C)(C)c1cc(CCC(=O)OCC(COC(=O)CCc2cc(C(C)(C)C)c(O)c(C(C)(C)C)c2)(COC(=O)CCc2cc(C(C)(C)C)c(O)c(C(C)(C)C)c2)COC(=O)CCc2cc(C(C)(C)C)c(O)c(C(C)(C)C)c2)cc(C(C)(C)C)c1O	inactive

Now look at this entry.
[in] For CC(C)NC(=O)N(C)C[C@H]1Oc2ccc(NC(=O)c3ccncc3)cc2CC(=O)N([C@H](C)CO)C[C@H]1C , which call appears in the assay record?
[out] inactive

###

# System: HSkMC
# method description: cytotoxicity call (relative viability < 0.9)
# experimental conditions: 10 µM
The whole screen tested about 39,000 compounds, of which about 1,500 (3.8%) were called active. What follows is part of a selection rich in actives, with near analogues and random picks from the rest.
Choose the fitting class; nothing outside active, inactive is accepted.

The following compounds have reported results that may help.
In [3]: df
Out[3]:
                                smiles_text  answer_label
0                C=CC(=O)NS(=O)(=O)c1ccccc1      inactive
1  COc1ccc(NC(=O)N(C)C[C@@H]2Oc3ncc(C#C[C@H](C)O)cc3C(=O)N([C@H](C)CO)C[C@@H]2C)cc1      inactive
2  C[C@H](CO)N1C[C@H](C)[C@H](CN(C)S(C)(=O)=O)Oc2c(NC(=O)CCCCCC(=O)Nc3ccccc3N)cccc2C1=O      inactive
3  C[C@H]1CN([C@@H](C)CO)C(=O)Cc2cc(NS(=O)(=O)c3ccc(Cl)cc3)ccc2O[C@H]1CN(C)Cc1ccc(Oc2ccccc2)cc1        active
4  C[C@H](CO)N1C[C@H](C)[C@H](CN(C)Cc2ccc(Oc3ccccc3)cc2)Oc2ccc(NS(=O)(=O)c3ccc(Cl)cc3)cc2CC1=O        active

[in] For C[C@@H](NC(=O)C[C@H]1CC[C@@H](NC(=O)CN2CCOCC2)[C@@H](CO)O1)c1ccccc1 , which call appears in the assay record?
[out] inactive

[in] For C[C@@H]1CN([C@H](C)CO)C(=O)c2cc(NC(=O)Nc3cccc4ccccc34)ccc2O[C@H]1CN(C)C(=O)Nc1cccc2ccccc12 , which call appears in the assay record?
[out] inactive

###

# Tested on: HSkMC
# method description: cytotoxicity call (relative viability < 0.9)
# experimental conditions: 10 µM
The whole screen tested about 39,000 compounds, of which about 1,500 (3.8%) were called active. Many of the other results were omitted from the sample, so actives are more common in it than they were.
Choose the fitting class; nothing outside 1 = active, -1 = inactive is accepted.

In [3]: df
Out[3]:
                                smiles_text  answer_label
0  C[C@@H]1CCCCO[C@H](CN(C)Cc2ccc(Cl)c(Cl)c2)[C@@H](C)CN([C@@H](C)CO)C(=O)c2cc(NS(=O)(=O)c3ccccc3)ccc2O1             1

[in] For C[C@@H]1CN([C@H](C)CO)C(=O)c2cc(NS(=O)(=O)c3ccccc3)ccc2O[C@@H](C)CCCCO[C@@H]1CN(C)Cc1ccc(Cl)c(Cl)c1 , which call appears in the assay record?
[out] 1

[in] For COc1ccc(S(=O)(=O)N2C[C@H](O)COC[C@H]3O[C@H](CC(=O)NCCCN4CCOCC4)CC[C@@H]32)cc1 , which call appears in the assay record?
[out] -1

[in] For C[C@H]1CCCCO[C@H](CN(C)Cc2ccc(Cl)c(Cl)c2)[C@@H](C)CN([C@@H](C)CO)C(=O)c2cc(NS(=O)(=O)c3ccccc3)ccc2O1 , which call appears in the assay record?
[out] -1

[in] For C[C@H](CO)N1C[C@H](C)[C@@H](CN(C)C(=O)c2ccncc2)OCCCC[C@H](C)Oc2ccc(NS(C)(=O)=O)cc2C1=O , which call appears in the assay record?
[out] -1

[in] For C[C@@H]1CN([C@H](C)CO)C(=O)c2cc(NS(=O)(=O)c3ccccc3)ccc2O[C@H]1CN(C)Cc1ccc(Oc2ccccc2)cc1 , which call appears in the assay record?
[out] -1

###

# Tested on: HSkMC (human skeletal muscle cells)
# method description: cytotoxicity call (relative viability < 0.9)
# experimental conditions: 10 µM
Among all 39,000 compounds or so, about 1,500 (3.8%) were called active. For the sample, actives were picked, then their nearest neighbours and some compounds at random.
Choose the fitting class; nothing outside Yes (active), No (inactive) is accepted.

The following molecules have reported results that may help.
molecule	answer label
Cc1noc(C)c1S(=O)(=O)Nc1ccc2c(c1)C(=O)N([C@@H](C)CO)C[C@@H](C)[C@@H](CN(C)CC1CCCCC1)OCCCC[C@H](C)O2	No
Nc1nonc1/C(=N/O)N1CCCCC1	No
C[C@H](CO)N1C[C@H](C)[C@@H](CN(C)Cc2ccc(C(F)(F)F)cc2)Oc2c(NC(=O)c3nc4ccccc4s3)cccc2C1=O	No
C[C@@H]1CN([C@@H](C)CO)C(=O)c2cccc(NC(=O)c3nc4ccccc4s3)c2O[C@H]1CN(C)Cc1ccc(C(F)(F)F)cc1	No
Cc1noc(C)c1S(=O)(=O)N(C)C[C@@H]1OCCCC[C@H](C)Oc2ccc(NS(C)(=O)=O)cc2C(=O)N([C@H](C)CO)C[C@@H]1C	No

[in] For COc1cccc(C(=O)Nc2ccc3c(c2)C(=O)N(C)[C@H]2CC[C@H](CC(=O)Nc4ccc5c(c4)CCCC5)O[C@@H]2CO3)c1 , which call appears in the assay record?
[out] No

[in] For CNC(=O)C[C@@H]1CC[C@@H]2[C@H](COC[C@H](O)CN2C(=O)Nc2cccc(OC)c2)O1 , which call appears in the assay record?
[out] No

[in] For COc1ccc2c3c(n(c2c1)C)[C@H](CO)N(C[C@]13CN(C1)S(=O)(=O)c1cn(cn1)C)C(=O)Nc1ccc(cc1)F , which call appears in the assay record?
[out] No

[in] For C[C@@H]1CN([C@@H](C)CO)C(=O)c2cccc(NC(=O)c3nc4ccccc4s3)c2O[C@@H]1CN(C)Cc1ccc(C(F)(F)F)cc1 , which call appears in the assay record?
[out] No

[in] For COc1ccccc1C(=O)Nc1ccc2c(c1)C(=O)N(C)[C@@H]1CC[C@H](CC(=O)NCc3ccc(Cl)c(Cl)c3)O[C@H]1CO2 , which call appears in the assay record?
[out] No

[in] For COCC(=O)N(C)C[C@H]1Oc2cc(C#CCN(C)C)ccc2S(=O)(=O)N([C@H](C)CO)C[C@H]1C , which call appears in the assay record?
[out] No

[in] For CC(=O)[C@]1(O)Cc2c(O)c3c(c(O)c2[C@@H](O[C@@H]2C[C@@H](N)[C@H](O)[C@@H](C)O2)C1)C(=O)c1c(O)cccc1C3=O , which call appears in the assay record?
[out] Yes

[in] For C[C@H](CO)N1C[C@H](C)[C@H](CN(C)C(=O)Nc2ccc3c(c2)OCO3)OCc2cn(nn2)CCCC1=O , which call appears in the assay record?
[out] No

[in] For COc1cccc2c1C(=O)c1c(O)c3c(c(O)c1C2=O)CC(O)(C(C)=O)CC3OC1CC(N)C(O)C(C)O1.Cl (stereo not drawn) , which call appears in the assay record?
[out] No

[in] For C[C@@H]1CN([C@H](C)CO)C(=O)c2cccc(NC(=O)c3nc4ccccc4s3)c2O[C@H]1CN(C)Cc1ccc(C(F)(F)F)cc1 , which call appears in the assay record?
[out] Yes

[in] For O=C(C[C@@H]1CC[C@H]2[C@@H](COC[C@@H](O)CN2S(=O)(=O)c2ccccc2)O1)NCCN1CCCC1 , which call appears in the assay record?
[out] No

[in] For C=CCOC(=O)[C@H]1[C@@H]2C(=O)O[C@@H](c3ccccc3)[C@@H](c3ccccc3)N2[C@@H](c2ccc(OCCOC(=O)[C@@H]3C[C@@H]4C(=O)N[C@@H](CCCCNC(C)=O)C(=O)N4[C@@H]3c3ccc(O)cc3)cc2)[C@]12C(=O)Nc1ccccc12 , which call appears in the assay record?
[out] No

[in] For COc1ccccc1C(=O)Nc1ccc2c(c1)C(=O)N(C)[C@H]1CC[C@@H](CC(=O)NCc3ccc(Cl)c(Cl)c3)O[C@@H]1CO2 , which call appears in the assay record?
[out] Yes

[in] For C[C@H]1CN([C@@H](C)CO)C(=O)c2cccc(NC(=O)c3nc4ccccc4s3)c2O[C@@H]1CN(C)Cc1ccc(C(F)(F)F)cc1 , which call appears in the assay record?
[out] Yes

[in] For CC(=O)[C@]1(N)Cc2c(O)c3c(c(O)c2[C@@H](O[C@H]2C[C@H](O)[C@H](O)CO2)C1)C(=O)c1ccccc1C3=O , which call appears in the assay record?
[out] Yes

[in] For Cc1noc(C)c1S(=O)(=O)Nc1cccc2c1O[C@@H](CN(C)S(=O)(=O)c1ccc(Cl)cc1)[C@@H](C)CN([C@H](C)CO)C2=O , which call appears in the assay record?
[out] No

[in] For COc1cccc2c1C(=O)c1c(O)c3c(c(O)c1C2=O)C[C@@](O)(C(C)=O)C[C@@H]3O[C@H]1C[C@H](N)[C@H](O)[C@H](C)O1 , which call appears in the assay record?
[out] Yes

[in] For COc1ccc(CN(C)C[C@H]2OCCCC[C@@H](C)Oc3ccc(NC(=O)c4ccccc4)cc3C(=O)N([C@H](C)CO)C[C@H]2C)cc1 , which call appears in the assay record?
[out] No

[in] For Cc1cc(C(=O)Nc2cccc3c2O[C@H](CN(C)S(=O)(=O)c2ccccc2)[C@H](C)CN([C@@H](C)CO)C3=O)n(C)n1 , which call appears in the assay record?
[out] No

[in] For C[C@H](CO)N1C[C@H](C)[C@H](CN(C)S(=O)(=O)c2cccs2)Oc2c(NC(=O)Nc3cccc4ccccc34)cccc2C1=O , which call appears in the assay record?
[out] No
